test method notes: A CellTox Green Cytotoxicity Assay to monitor cytotoxicity in HepG2 cells - 32 hour (AID 1224883); note: nearly all actives have a fitted effect of over 50% in size
run parameters: CellTox Green fluorescence; series mostly up to 76.8 µM
Records with an inconclusive call do not appear. Activity calls are given as the source filed them. Calls come from the whole dose curve; as a rule, active = well fitted activation curve with a large enough effect in the repeat runs; inconclusive = weak or mixed curves; inactive = flat fitted curve, though single readings scatter.
Just give me one of these, please: yes (1) = active, no (0) = inactive

Sample answers from the record:
Q: # lookup: test call for `COCCO`
A: no (0)

Q: Field entry: `CCCCCCCCCC(=O)OCC`
A: no (0)

Q: Field entry: `CCOC(=O)CC(C)C`
A: no (0)

Q: Field entry: `CCOc1nc2cccc(C(=O)O)c2n1Cc1ccc(-c2ccccc2-c2nn[nH]n2)cc1`
A: no (0)

Q: Field entry: `O=C1[C@H](CC[C@H](O)c2ccc(F)cc2)[C@@H](c2ccc(O)cc2)N1c1ccc(F)cc1`
A: no (0)

Q: Field entry: `Cc1cc(CC(=O)O)c(C)n1-c1ccc(Cl)cc1`
A: no (0)

Q: Field entry: `CCOC(=O)C1=NN(c2ccccc2)C(=O)C1`
A: no (0)

Q: Field entry: `CC1(C)CCC(C)(C)c2cc(NC(=O)c3ccc(C(=O)O)cc3)ccc21`
A: no (0)

Others:
Q: # lookup: test call for `Cc1occc1S`
A: no (0)

Q: Field entry: `CN(c1nccc(=O)[nH]1)C1CCN(c2nc3ccccc3n2Cc2ccc(F)cc2)CC1`
A: no (0)

Q: Field entry: `COc1ccc(OC)c(OC)c1`
A: no (0)

Q: Field entry: CC(C(=O)O)c1ccc(C(=O)c2ccccc2)s1 (configuration not stated)
A: no (0)

Q: Field entry: `CC(=O)N(O)CCCCCNC(=O)CCC(=O)N(O)CCCCCNC(=O)CCC(=O)N(O)CCCCCN`
A: no (0)

Q: Field entry: `C=CCCCCCC`
A: no (0)

Q: Field entry: `Cc1ccccc1N=Nc1ccc(N=Nc2c(O)ccc3ccccc23)c(C)c1`
A: no (0)

Q: Field entry: `N#CCc1cccc(C(F)(F)F)c1`
A: no (0)

Q: Field entry: `Cl/C(=C\n1cncn1)c1ccc(Cl)cc1Cl`
A: no (0)

Q: Field entry: NC1CCN(c2nc3c(cc2F)c(=O)c(C(=O)O)cn3-c2ccc(F)cc2F)C1 (configuration not stated)
A: no (0)

Q: Field entry: CCC(C)N(C)C(=O)c1cc2ccccc2c(-c2ccccc2Cl)n1 (configuration not stated)
A: yes (1)

Q: Field entry: `Cc1cc(C)c(S(=O)(=O)O)cc1N=Nc1cc(S(=O)(=O)O)c2ccccc2c1O`
A: no (0)

Q: Field entry: `CC(=O)OCCc1ccccc1`
A: no (0)

Q: Field entry: N[C@H]1C(O)O[C@H](CO)[C@H](O)[C@@H]1O (some centres not stated)
A: no (0)

Q: Field entry: `O=C(O)Cn1c(C(=O)Nc2nc(-c3ccccc3Cl)cs2)cc2ccccc21`
A: no (0)

Q: Field entry: `CC(=O)OC/C=C/c1ccccc1`
A: no (0)

Q: Field entry: `CC(=O)NCCCS(=O)(=O)O`
A: yes (1)

Q: Field entry: OCCC1CCCCN1 (configuration not stated)
A: no (0)

Q: Field entry: `CCN(CC)C(C)=O`
A: no (0)
